Known IC50 of a selection of compounds
Target: Sodium/glucose cotransporter 2 (Homo sapiens)
Sequence (P31639 whole entry): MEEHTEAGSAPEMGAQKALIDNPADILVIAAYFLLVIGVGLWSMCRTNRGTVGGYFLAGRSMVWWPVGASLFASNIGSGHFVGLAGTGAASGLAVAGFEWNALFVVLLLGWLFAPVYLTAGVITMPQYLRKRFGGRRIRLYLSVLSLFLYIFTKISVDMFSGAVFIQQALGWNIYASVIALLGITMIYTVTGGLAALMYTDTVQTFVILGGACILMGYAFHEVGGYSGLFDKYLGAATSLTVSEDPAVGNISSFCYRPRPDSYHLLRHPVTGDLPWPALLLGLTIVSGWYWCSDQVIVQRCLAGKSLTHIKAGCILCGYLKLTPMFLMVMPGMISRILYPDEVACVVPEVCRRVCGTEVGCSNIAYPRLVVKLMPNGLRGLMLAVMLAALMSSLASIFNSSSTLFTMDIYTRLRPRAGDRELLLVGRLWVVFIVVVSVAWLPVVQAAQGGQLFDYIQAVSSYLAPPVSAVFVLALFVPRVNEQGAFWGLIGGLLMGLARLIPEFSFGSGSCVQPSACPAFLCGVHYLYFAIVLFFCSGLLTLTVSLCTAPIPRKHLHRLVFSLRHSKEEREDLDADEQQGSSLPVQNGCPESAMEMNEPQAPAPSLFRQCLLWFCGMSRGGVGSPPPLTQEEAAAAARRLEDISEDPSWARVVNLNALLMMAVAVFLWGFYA
Experiment: Inhibition of human SGLT2 expressed in CHOK1 cells assessed as inhibition of [14C]-AMG uptake after 3 hrs by microbeta scintillation counting analysis
Write down the numeric answer in nM and omit the unit.

compound_smiles | IC50 / nM
CCN1C(=O)CN(c2ccc(Cc3cc([C@@H]4O[C@H](CO)[C@@H](O)[C@H](O)[C@H]4O)ccc3Cl)cc2)C1=O | 10.9
CN1C(=O)N(c2ccc(Cc3cc([C@@H]4O[C@H](CO)[C@@H](O)[C@H](O)[C@H]4O)ccc3Cl)cc2)C(C)(C)C1=O | 248
Cc1cccc2nn(Cc3cc([C@@H]4O[C@H](CO)[C@@H](O)[C@H](O)[C@H]4O)ccc3Cl)c(=O)n12 | 9920
COc1ccn2c(=O)n(Cc3cc([C@@H]4O[C@H](CO)[C@@H](O)[C@H](O)[C@H]4O)ccc3Cl)nc2c1 | 5480
O=c1n(Cc2cc([C@@H]3O[C@H](CO)[C@@H](O)[C@H](O)[C@H]3O)ccc2Cl)nc2cc(Cl)ccn12 | 89
O=c1n(Cc2cc([C@@H]3O[C@H](CO)[C@@H](O)[C@H](O)[C@H]3O)ccc2Cl)nc2cc(OCC(F)(F)F)ccn12 | 5700

The compound listed as `O=c1n(Cc2cc([C@@H]3O[C@H](CO)[C@@H](O)[C@H](O)[C@H]3O)ccc2Cl)nc2c(Cl)cccn12` shows IC50 equal to 9000

Record summary for `O=c1n(Cc2cc([C@@H]3O[C@H](CO)[C@@H](O)[C@H](O)[C@H]3O)ccc2Cl)nc2ccc(Br)cn12` : reported IC50 = 107

Record `O=c1n(Cc2cc([C@@H]3O[C@H](CO)[C@@H](O)[C@H](O)[C@H]3O)ccc2Cl)nc2ccc(Cl)cn12` . Reported IC50: 80
